Taken from ChEMBL document CHEMBL4266027.

Test system: U-87 MG
testDescription: Cytotoxicity against human U87MG cells assessed as decrease in cell viability after 72 hrs by MTS assay
Assay type: functional, cell-based, U-87MG ATCC
pEC50: −log10 of the molar value.

{"smilesNotation": "CC1(C)[C@H]2OC(=O)O[C@H]2[C@@H](O)[C@]2(C=O)[C@H]3CC[C@]4(C)[C@@H](c5ccc(=O)oc5)[C@@H](Cl)C[C@]4(O)C3=CC[C@@H]12", "pEC50": 6.21}
{"smilesNotation": "C[C@]12CC[C@H](O)C[C@H]1CC[C@@H]1[C@@H]2CC[C@]2(C)[C@@H](c3ccc(=O)oc3)CC[C@]12O", "pEC50": 7.85}
{"smilesNotation": "CC1(C)[C@@H](OC(N)=O)C=C[C@]2(C=O)[C@H]3CC[C@]4(C)[C@@H](c5ccc(=O)oc5)[C@@H](Cl)C[C@]4(O)C3=CC[C@@H]12", "pEC50": 8.24}
